- Study System: RORγt (Homo sapiens, UniProt P51449)
- Sequence (P51449 1-497 isoform P51449-2, species assumed): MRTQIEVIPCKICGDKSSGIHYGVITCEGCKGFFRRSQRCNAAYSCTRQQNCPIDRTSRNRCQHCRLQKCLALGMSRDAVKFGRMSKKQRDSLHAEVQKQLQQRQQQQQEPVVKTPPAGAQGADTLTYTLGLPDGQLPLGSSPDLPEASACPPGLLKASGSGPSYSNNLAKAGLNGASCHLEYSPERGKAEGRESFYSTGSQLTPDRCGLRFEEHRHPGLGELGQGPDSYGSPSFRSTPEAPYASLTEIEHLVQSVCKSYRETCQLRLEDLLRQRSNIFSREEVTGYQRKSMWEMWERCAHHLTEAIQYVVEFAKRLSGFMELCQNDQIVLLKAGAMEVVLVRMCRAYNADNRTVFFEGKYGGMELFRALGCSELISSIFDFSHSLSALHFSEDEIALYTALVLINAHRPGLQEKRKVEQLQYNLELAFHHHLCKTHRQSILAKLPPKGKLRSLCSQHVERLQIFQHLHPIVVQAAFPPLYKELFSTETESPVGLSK
- Assay Explanation: Cofactor recruitment test (Alpha Screen, biotinylated SRC-1 peptide)
- Assay type: biochemical
- Experimental Parameters: read-out: Signal value inhibitory rate at test compound 1 μM (%)
Classification field: T = inhibition at 1 µM at or over 90%; F = inhibition at 1 µM under 90%.

Does COc1ccc2c(c1)CCN(C(=O)N1CC(CC(=O)O)C1)[C@H]2C(=O)Nc1cc(F)c([Si](C)(C)C)c(F)c1 have a reported inhibition at 1 µM of at least 90%?
T

Does COc1ccc2c(c1)CCN(C(=O)CCCC(=O)O)[C@H]2C(=O)Nc1cc(F)c(C(C)(C)COCC2CC2)c(F)c1 have a reported inhibition at 1 µM of at least 90%?
F

Does CCOc1ccc2c(c1)CCN(C(=O)CCCCC(=O)O)[C@H]2C(=O)Nc1cc(F)c2c(c1)CCC2(C)C have a reported inhibition at 1 µM of at least 90%?
F

Does COc1ccc2c(n1)CCN(C(=O)Cc1cc(O)no1)[C@H]2C(=O)Nc1cc(F)c2c(c1)CCC2(C)C have a reported inhibition at 1 µM of at least 90%?
F

Does COc1ccc2c(n1)CCN(C(=O)Cc1cc(O)no1)C2C(=O)Nc1ccc(C(C)(C)C)c(F)c1 (stereo not shown) have a reported inhibition at 1 µM of at least 90%?
F

Does CCOc1ccc2c(c1)CCN(C(=O)Cc1cc(O)no1)C2C(=O)Nc1ccc(C(C)(C)C)c(F)c1 (stereo not shown) have a reported inhibition at 1 µM of at least 90%?
F

Measured values drawn from patent US10053468B2 for this set.
